- TEST_SYSTEM: T1, human CDH6 on tumor cells (OVCAR3 cells, PA-1 cells) (human, UniProt P55285 54-790)
- T1 sequence: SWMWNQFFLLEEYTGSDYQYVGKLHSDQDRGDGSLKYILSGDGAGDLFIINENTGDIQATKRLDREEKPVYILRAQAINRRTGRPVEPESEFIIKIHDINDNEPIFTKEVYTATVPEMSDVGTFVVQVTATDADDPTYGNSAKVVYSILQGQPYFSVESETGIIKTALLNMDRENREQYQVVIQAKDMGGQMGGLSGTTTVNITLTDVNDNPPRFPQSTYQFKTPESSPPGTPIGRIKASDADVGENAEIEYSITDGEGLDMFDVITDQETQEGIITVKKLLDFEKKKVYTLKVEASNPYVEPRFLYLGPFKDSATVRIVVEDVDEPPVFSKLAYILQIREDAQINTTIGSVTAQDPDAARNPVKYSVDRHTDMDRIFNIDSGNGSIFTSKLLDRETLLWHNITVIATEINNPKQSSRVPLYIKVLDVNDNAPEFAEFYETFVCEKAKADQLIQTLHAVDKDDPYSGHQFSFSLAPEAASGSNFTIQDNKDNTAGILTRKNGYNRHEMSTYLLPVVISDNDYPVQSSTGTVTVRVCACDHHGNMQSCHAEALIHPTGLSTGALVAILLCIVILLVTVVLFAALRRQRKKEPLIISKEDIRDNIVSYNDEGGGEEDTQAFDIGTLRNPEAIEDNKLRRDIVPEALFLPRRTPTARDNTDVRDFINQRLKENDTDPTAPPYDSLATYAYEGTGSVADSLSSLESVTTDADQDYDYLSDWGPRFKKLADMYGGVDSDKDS
- RUN_DESCRIPTION: FACS, OVCAR3 cells
Measured EC50 of individual entries
VALUE_KIND: EC50 (nM)

- BINDER: "hCDH6-6-H2L4 (antibody, V domains shown, Humanized) VH: EVQLVQSGAEVKKPGASVKVSCKASGYTFTDYYMAWVRQAPGQGLEWMGYIFPNSGGTDYSQKFKGRVTLTVDKSTSTVYMELSSLRSEDTAVYYCARELGADYGDYYAMDHWGQGTTVTVSS VL: DIQMTQSPSSLSASVGDRVTITCRASENIDSYLAWYQQKPGKSPKLLVYSATLLADGVPSRFSGSGSGTDYTLTISSLQPEDFARYYCQHYYRTPPTFGQGTKLEIK"
  UNIT_SPEC: "nM"
  EXPERIMENTAL_VALUE: 0.62
- BINDER: "hCDH6-6-H2L1 (antibody, V domains shown, Humanized) VH: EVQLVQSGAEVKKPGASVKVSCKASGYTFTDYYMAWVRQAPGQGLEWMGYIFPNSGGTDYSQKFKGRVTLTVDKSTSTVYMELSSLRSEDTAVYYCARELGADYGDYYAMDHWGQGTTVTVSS VL: DIQMTQSPSSLSASVGDRVTITCRASENIDSYLAWYQQKPGKSPKLLLYSATLLADGVPSRFSGSGSGTDYTLTISSLQPEDFATYYCQHYYRTPPTFGQGTKLEIK"
  UNIT_SPEC: "nM"
  EXPERIMENTAL_VALUE: 0.61
- BINDER: "hCDH6-6-H1L4 (antibody, V domains shown, Humanized; also called hCDH6-6-HIL4) VH: EVQLVQSGAEVKKPGASVKVSCKASGYTFTDYYMAWVRQAPGQGLEWMGYIFPNSGGTDYSQKFKGRVTMTVDKSTSTVYMELSSLRSEDTAVYYCARELGADYGDYYAMDHWGQGTTVTVSS VL: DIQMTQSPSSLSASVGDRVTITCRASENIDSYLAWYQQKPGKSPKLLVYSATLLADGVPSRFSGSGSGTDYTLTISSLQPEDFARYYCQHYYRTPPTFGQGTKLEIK"
  UNIT_SPEC: "nM"
  EXPERIMENTAL_VALUE: 0.64
